Where these numbers come from: paper PMC7381267

- Target: BRD4 BD2 (Homo sapiens, UniProt O60885)
- Construct: purchased Cayman Chemical
- Assay Protocol: TR-FRET assay, BRD4 BD2
- Format: binding
Assay Endpoint: IC50
Answer format reminder: number followed by unit.

Ask | Identify the reported IC50 for the following entry. COc1cc(OC)c2c(=O)cc(-c3cc(C)c(OC[C@H](O)CN4CCCCC4)c(C)c3)oc2c1
Reply | 684 nM

====

What pIC50 was measured for each of the following?
- Target: BRD2 BD2 (Homo sapiens, UniProt P25440)
- Sequence (P25440 344-453 limits assumed): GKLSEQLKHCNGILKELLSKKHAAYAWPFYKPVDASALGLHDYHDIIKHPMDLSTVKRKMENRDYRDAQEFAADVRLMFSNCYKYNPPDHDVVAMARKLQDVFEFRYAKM
- Assay Protocol: TR-FRET assay, BRD2 BD2
The value called pIC50 is obtained by taking minus log10 of the concentration in mol/L.

Ask | Please report pIC50 for the following compound: Cc1cc(/N=N/c2ccc(S(=O)(=O)Nc3ccccn3)cc2)c(N)cc1O [MS436 (3), reference compound]
Reply | 6.07

Ask | Look up and report measured pIC50 for this entry: COc1cc(OC)c2c(=O)cc(-c3cc(C)c(OC[C@H](O)CN4CCCCC4)c(C)c3)oc2c1
Reply | 6.07
